protocol_summary: Efflux ratio of apparent permeability across basolateral to apical side over apical to basolateral side in human Caco-2 cells
Assay type: ADME, cell-based

[
  {
    "structure": "Cc1c(C)c2ccc(OCC3CCN(CCCC(F)F)CC3)cc2oc1=O",
    "efflux ratio": 1
  },
  {
    "structure": "Cc1c(C)c2ccc(OCC3CCN(CCCO)CC3)cc2oc1=O",
    "efflux ratio": 1.2
  },
  {
    "structure": "Cc1c(C)c2ccc(OCC3CCN(Cc4ccccc4)CC3)cc2oc1=O",
    "efflux ratio": 1.6
  },
  {
    "structure": "CN(CCCC(F)F)Cc1ccc(COc2ccc3c(CO)cc(=O)oc3c2)cc1",
    "efflux ratio": 0.6
  }
]

====

protocol_summary: Apparent permeability across basolateral to apical side in human Caco-2 cells at 10 uM incubated for 60 mins by HPLC-MS/MS method
Format: ADME, cell-based
reported_property: Papp B→A at 1 h, 10 µM (×10⁻⁶ cm/s)

[
  {
    "structure": "Cc1c(C)c2ccc(OCC3CCN(CCCO)CC3)cc2oc1=O",
    "reading_unit": "×10⁻⁶ cm/s",
    "value_measured": 22
  },
  {
    "structure": "Cc1c(C)c2ccc(OCC3CCN(Cc4ccccc4)CC3)cc2oc1=O",
    "reading_unit": "×10⁻⁶ cm/s",
    "value_measured": 12
  },
  {
    "structure": "Cc1c(C)c2ccc(OCC3CCN(CCCC(F)F)CC3)cc2oc1=O",
    "reading_unit": "×10⁻⁶ cm/s",
    "value_measured": 16
  },
  {
    "structure": "CN(CCCC(F)F)Cc1ccc(COc2ccc3c(CO)cc(=O)oc3c2)cc1",
    "reading_unit": "×10⁻⁶ cm/s",
    "value_measured": 16
  }
]

====

logD at 24 h, 1 µM for assorted molecules
protocol_summary: 1-Octanol/PBS buffer distribution coefficient, log D of the compound at 1 uM measured after 24 hrs at pH 7.4 by shake flask based HPLC-ES-MS/MS analysis
Type: physicochemical

[
  {
    "molecule": "Cc1c(C)c2ccc(OCC3CCCN(CCCO)C3)cc2oc1=O (racemic)",
    "logD at 24 h, 1 µM": 1.15
  },
  {
    "molecule": "CN(CCCC(F)F)Cc1ccc(COc2ccc3c(CO)cc(=O)oc3c2)cc1",
    "logD at 24 h, 1 µM": 2.48
  },
  {
    "molecule": "Cc1c(C)c2ccc(OCC3CCN(Cc4cccc(F)c4)CC3)cc2oc1=O",
    "logD at 24 h, 1 µM": 3.43
  },
  {
    "molecule": "Cc1c(C)c2ccc(OCc3cccc(CN(C)CCCC(F)F)c3)cc2oc1=O",
    "logD at 24 h, 1 µM": 3.65
  },
  {
    "molecule": "Cc1c(C)c2ccc(OCc3ccc(CN(C)CCCC(F)F)cc3)cc2oc1=O",
    "logD at 24 h, 1 µM": 3.78
  },
  {
    "molecule": "CN(Cc1ccccc1)Cc1ccc(COc2ccc3c(CO)cc(=O)oc3c2)cc1",
    "logD at 24 h, 1 µM": 3.81
  },
  {
    "molecule": "CN(Cc1ccccc1)Cc1ccc(COc2ccc3c(C(F)F)cc(=O)oc3c2)cc1",
    "logD at 24 h, 1 µM": 4.8
  },
  {
    "molecule": "Cc1c(C)c2ccc(OCC3CCN(Cc4ccccc4)CC3)cc2oc1=O",
    "logD at 24 h, 1 µM": 3.4
  },
  {
    "molecule": "Cc1c(C)c2ccc(OCC3CCCN(CCCC(F)F)C3)cc2oc1=O (racemic)",
    "logD at 24 h, 1 µM": 2.67
  },
  {
    "molecule": "Cc1c(C)c2ccc(OCC3CCN(Cc4cccc(C(F)(F)F)c4)CC3)cc2oc1=O",
    "logD at 24 h, 1 µM": 5.05
  },
  {
    "molecule": "Cc1c(C)c2ccc(OCC3CCN(CCCC(F)F)CC3)cc2oc1=O",
    "logD at 24 h, 1 µM": 2.34
  },
  {
    "molecule": "CN(Cc1ccc(COc2ccc3c(CO)cc(=O)oc3c2)cc1)Cc1cccc(F)c1",
    "logD at 24 h, 1 µM": 4.29
  },
  {
    "molecule": "Cc1c(C)c2ccc(OCC3CCCN(Cc4ccccc4)C3)cc2oc1=O (racemic)",
    "logD at 24 h, 1 µM": 3.65
  },
  {
    "molecule": "Cc1c(C)c2ccc(OCC3CCN(CCCO)CC3)cc2oc1=O",
    "logD at 24 h, 1 µM": 0.86
  },
  {
    "molecule": "Cc1c(C)c2ccc(OCC3CCCN(Cc4cccc(F)c4)C3)cc2oc1=O (racemic)",
    "logD at 24 h, 1 µM": 4.38
  }
]
